Test: NCI Yeast Anticancer Drug Screen. Data for the bub3 strain (AID 167)
Conditions: S. cerevisiae bub3 mutant strain; at 50.0 µM unless noted
Method: Growth inhibition of yeast strains with defined genetic alterations is measured as a screen for potential anti-cancer activity. Selected strains with alterations in DNA damage repair or cell cycle control were exposed to compounds and growth inhibition was measured relative to vehicle treated controls. The strain used in this assay is bub3
About 79,000 compounds went through this panel and 15% of them were active in at least one assay; those are over-represented in the sample as a whole. Active and inactive are the calls of the source. Cut-off read from the data, not from the text of the source: active = growth inhibition above about 70%; inactive = the rest.
Form entry, call: pick from active, inactive

Before answering, review these 6 worked examples.
What call does the record list for `Cc1cc2ccccc2c[n+]1CC(O)C[n+]1cc2ccccc2cc1C` ?
inactive

And `C(=Nc1cccnc1)c1ccc(C=Nc2cccnc2)cc1` ?
inactive

And `CCCCCCCCCc1cc(=O)c2c(O)cccc2o1` ?
inactive

And `O=C(CN1CCCCCC1)Nc1ccc2c(c1)C(=O)c1ccc(NC(=O)CN3CCCCCC3)cc1C2=O` ?
inactive

And OC(CN1CCCC1)c1ccccc1 (configuration not stated) ?
inactive

And `CCOC(=O)c1cnc2c(cnn2CC)c1NCC(C)C` ?
active

Others:
What call does the record list for `O=C(CCS(=O)(=O)CCC(=O)c1ccc2ccccc2c1)c1ccc2ccccc2c1` ?
inactive

====

Assay: NCI Yeast Anticancer Drug Screen. Data for the cln2 rad14 strain (AID 165);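 note: 0% = growth equal to vehicle treated cultures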
Conditions: S. cerevisiae cln2 rad14 strain, active compounds read high; at 50.0 µM unless noted
Compounds without any hit were thinned out: in the full panel of roughly 79,000, 15% have a hit.
Listed next: entries and their corresponding growth inhibition.
Express it in %; write the number only.

Give its growth inhibition value. Item: `CCCNC(=O)Cn1c(-c2ccccc2)cc2ccccc21`
18.4

And `Cc1c(CC#N)cc(C)c2c3c([nH]c12)-c1ccccc1CC3` ?
11.8

And `COc1ccccc1OC(=O)Nc1ccc(S(=O)(=O)NC2CCCCC2)cc1` ?
2.25

And CCCCC(CC)CCC(C)O (configuration not stated) ?
-40.4

And Oc1cc(O)c2c(c1)OC(c1ccc(O)c(O)c1)C(O)C2O (configuration not stated) ?
-3.55

====

Assay: NCI Yeast Anticancer Drug Screen. Data for the mec2-1 strain (AID 157)
Details: S. cerevisiae mec2-1 strain, active compounds read high; at 50.0 µM unless noted
This is part of a sample that, as a whole, favours compounds with a hit. Of some 79,000 tested, about 15% had one in any assay.
attribute-measured: growth inhibition (%)
Express it in %; write the number only.

Give its growth inhibition value. Item: `CC(C)(C)OC(=O)C(=[N+]=[N-])C(=O)OC(C)(C)C`
1.5

And `N#C/C(=C/NC(N)=S)C(N)=O` ?
10.3

And CCC1CC(C)=CCN1S(=O)(=O)c1ccc(C)cc1 (stereo unspecified) ?
-2.3

And `C/C(=N\Nc1nc2ccccc2s1)c1ccc2c(c1)Sc1ccccc1O2` ?
7.7

Others:
Give its growth inhibition value. Item: `O=C(O)/C=C\C(=O)NNC(=O)/C=C\C(=O)O`
-2.8

And CCOC(=O)CN=C1Nc2ccccc2C(=O)N2CSCC12 (stereo unspecified) ?
-44.7

And `Cc1ccc(S(=O)(=O)CCN2CCN(C)CC2)cc1` ?
-9.25

And O=C(O)CCC1NC(/C(=C/c2ccccc2O)NC(=O)c2ccccc2)OC1=O (stereo unspecified) ?
-8.1

And OC1CSc2nc3ccccc3n2C1 (stereo unspecified) ?
9.25

And `CC(C)OC(=O)/C=C/CCCC1CCCCC1` ?
6.15

And `CC(C)(C)C(=O)CC(=O)C(F)(F)C(F)(F)C(F)(F)F.CC(C)(C)C(=O)CC(=O)C(F)(F)C(F)(F)C(F)(F)F.CC(C)(C)C(=O)CC(=O)C(F)(F)C(F)(F)C(F)(F)F.[La]` ?
-0.9
